Target: human Bradykinin B1 receptor (Homo sapiens, UniProt P46663)
Construct: host or cells: CHO-K1
Sequence (P46663 1-353): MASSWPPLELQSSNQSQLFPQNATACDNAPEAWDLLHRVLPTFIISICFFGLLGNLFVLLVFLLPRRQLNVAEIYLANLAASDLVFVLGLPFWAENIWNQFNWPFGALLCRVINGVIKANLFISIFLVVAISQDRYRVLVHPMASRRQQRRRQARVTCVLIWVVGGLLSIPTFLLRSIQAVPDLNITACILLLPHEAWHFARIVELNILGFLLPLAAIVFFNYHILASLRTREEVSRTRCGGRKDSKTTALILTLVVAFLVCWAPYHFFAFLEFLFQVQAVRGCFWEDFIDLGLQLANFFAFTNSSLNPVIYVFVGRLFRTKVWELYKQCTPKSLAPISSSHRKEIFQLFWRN
Test: Calcium flux Assay (FLIPR) with recombinant CHO-K1 cells expressing human Bradykinin B1 receptor, in presence (hB1 IC50) or absence (hB1 free IC50) of 0.1% BSA
Assay type: cell-based
Settings: in presence of 0.1% BSA, read-out: hB1 IC50
measure: IC50 (nM)

Solved cases (4 shown):
smiles-record | assay-system | recorded-number
COc1cc(F)cc(C2(C(=O)Nc3ccc(-c4ccc(OC)c(OC)c4)c(-c4nnn[nH]4)c3)CC2)c1 | human Bradykinin B1 receptor (Homo sapiens, UniProt P46663) | 41.6
O=C(Nc1cc(-c2nnn[nH]2)c(-c2ccc(C(F)(F)F)nc2)cc1O)C1(c2ccc(Cl)c(F)c2)CC1 | human Bradykinin B1 receptor (Homo sapiens, UniProt P46663) | 49.6
COc1ccc(-c2ccc(NC(=O)C3(c4cccc(F)c4)CC3)cc2-c2nnn[nH]2)cc1OC | human Bradykinin B1 receptor (Homo sapiens, UniProt P46663) | 68.8
O=C(Nc1ccc(-c2ccnc(C(F)(F)F)c2)c(-c2nnn[nH]2)c1)C1(c2cccc(Cl)c2F)CC1 | human Bradykinin B1 receptor (Homo sapiens, UniProt P46663) | 347

a: COc1ccc(-c2ccc(NC(=O)C3(c4cc(F)ccc4C)CC3)cc2-c2nnn[nH]2)cc1OC
b: COc1ccc(-c2ccc(NC(=O)C3(c4ccc(C)cc4)CC3)cc2-c2nnn[nH]2)cc1
c: COc1ccc(-c2ccc(NC(=O)C3(C4CCC(C)(C)CC4)CC3)cc2-c2nnn[nH]2)cc1OC
Sort ascending by IC50. Put the labels in the order asked and list them.
c, b, a

----------
target: human Bradykinin B1 receptor (Homo sapiens); construct: host or cells: CHO-K1; assay: Calcium flux Assay (FLIPR) with recombinant CHO-K1 cells expressing human Bradykinin B1 receptor, in presence (hB1 IC50) or absence (hB1 free IC50) of 0.1% BSA; format: cell-based; conditions: in presence of 0.1% BSA, read-out: hB1 IC50
pIC50: −log10 of the molar value.
measure: pIC50

Solved cases (10 shown):
molecule | measure | recorded-number
COc1cnccc1-c1ccc(NC(=O)C2(c3cccc(Cl)c3)CC2)cc1-c1nnn[nH]1 | pIC50 | 7.15
CCOc1ncc(-c2ccc(NC(=O)C3(c4ccc(F)cc4F)CC3)cc2-c2nnn[nH]2)cc1F | pIC50 | 7.19
CCOc1ccc(-c2cc(C)c(NC(=O)C3(c4cccc(Cl)c4)CC3)cc2-c2nnn[nH]2)cc1OC | pIC50 | 5.75
CCOc1ccc(-c2ccc(NC(=O)C3(c4cccc(F)c4Cl)CC3)cc2-c2nnn[nH]2)cn1 | pIC50 | 7.25
Cc1cc(-c2ccc(NC(=O)C3(c4cccc(Cl)c4)CC3)cc2-c2nnn[nH]2)ccn1 | pIC50 | 7.11
COc1ccc(-c2ccc(NC(=O)C3(c4ccc(Cl)cn4)CC3)cc2-c2nnn[nH]2)cc1OC | pIC50 | 6.75
COc1ccc(-c2ccc(NC(=O)C3(c4ccc(C)cc4)CC3(C)C)cc2-c2nnn[nH]2)cc1OC (stereo not drawn) | pIC50 | 5.82
O=C(Nc1ccc(-c2ccc(C(F)(F)F)nc2)c(-c2nnn[nH]2)c1)C1(c2cccc(Cl)c2)CC1 | pIC50 | 6.29
COc1cc(C2(C(=O)Nc3ccc(-c4ccc(OC)c(OC)c4)c(-c4nnn[nH]4)c3)CC2)ccc1F | pIC50 | 6.62
CCOc1ccc(-c2ccc(NC(=O)C3(c4ccc(C)cc4)CC3)cc2-c2nnn[nH]2)cn1 | pIC50 | 7.62

a: CCOc1ccc(-c2ccc(NC(=O)C3(c4ccccc4)CC3)cc2-c2nnn[nH]2)cn1
b: CO[C@H]1CC[C@H](c2ccc(NC(=O)C3(c4cccc(Cl)c4)CC3)cc2-c2nnn[nH]2)CC1
c: CCOc1ccc(-c2ccc(NC(=O)C3(c4cc(F)ccc4F)CC3)cc2-c2nnn[nH]2)cn1
d: CCOc1ccc(-c2ccc(NC(=O)C3(c4cccc(Cl)c4F)CC3)cc2-c2nnn[nH]2)cn1
Task field, ranking: reported pIC50, descending order. Put the labels in the order asked and list them.
d, c, a, b
(d: 7.79, c: 7.43, a: 6.88, b: 6.60)

I: CCOc1ccc(-c2ccc(NC(=O)C3(c4cccc(Cl)n4)CC3)cc2-c2nnn[nH]2)cn1
II: COc1ccc(-c2ccc(NC(=O)C3(C4CCC(C)CC4)CC3)cc2-c2nnn[nH]2)cc1 (single isomer, unassigned) [Example 113]
Hey, between I and II which has a smaller measured pIC50? Reply briefly: the label of your chosen item.
II
(II: 5.92, I: 6.87)

a: COc1ccc(-c2ccc(NC(=O)C3(c4cccc(Cl)c4)CC3)cc2-c2nnn[nH]2)cc1C
b: CCOc1ccc(-c2ccc(NC(=O)C3(c4ccccc4F)CC3)cc2-c2nnn[nH]2)cn1
c: CCOc1ccc(-c2ccc(NC(=O)C3(c4ccc(OC)c(F)c4)CC3)cc2-c2nnn[nH]2)cn1
d: COc1cc(-c2ccc(NC(=O)C3(c4cccc(Cl)c4)CC3)cc2-c2nnn[nH]2)cc(C(F)(F)F)n1
Task field, ranking: reported pIC50, descending order. Put the labels in the order asked and list them.
b, c, a, d

I: COc1ccc(-c2ccc(NC(=O)C3(c4cccc(F)c4F)CC3)cc2-c2nnn[nH]2)cc1OC
II: CCOc1ccc(-c2ccc(NC(=O)C3(c4cccc(F)c4)CC3)cc2-c2nnn[nH]2)cn1
Hey, between I and II which has a smaller measured pIC50? Reply briefly: the label of your chosen item.
I

----------
biological target: human Bradykinin B1 receptor (Homo sapiens); construct: host or cells: CHO-K1; assay: Calcium flux Assay (FLIPR) with recombinant CHO-K1 cells expressing human Bradykinin B1 receptor, in presence (hB1 IC50) or absence (hB1 free IC50) of 0.1% BSA; assay type: cell-based; details: in presence of 0.1% BSA, read-out: hB1 IC50
measure: IC50 (nM)

Solved cases (6 shown):
smiles-record | assay-system | reading-unit | IC50
COc1cc(-c2ccc(NC(=O)C3(c4cccc(Cl)c4)CC3)cc2-c2nnn[nH]2)ccc1C(F)(F)F | human Bradykinin B1 receptor (Homo sapiens) | nM | 68.6
COc1ccc(-c2ccc(NC(=O)C3(c4cc(F)cc(Cl)c4)CC3)cc2-c2nnn[nH]2)cc1OC | human Bradykinin B1 receptor (Homo sapiens) | nM | 40.9
N#Cc1cncc(-c2ccc(NC(=O)C3(c4cccc(Cl)c4)CC3)cc2-c2nnn[nH]2)c1 | human Bradykinin B1 receptor (Homo sapiens) | nM | 1320
CCOc1ccc(-c2c(Cl)cc(NC(=O)C3(c4cccc(Cl)c4)CC3)cc2-c2nnn[nH]2)cn1 | human Bradykinin B1 receptor (Homo sapiens) | nM | 61.8
CCOc1ccc(-c2ccc(NC(=O)C3(c4ccc(Cl)nc4)CC3)cc2-c2nnn[nH]2)cn1 | human Bradykinin B1 receptor (Homo sapiens) | nM | 338
CN(C)c1ccc(-c2ccc(NC(=O)C3(c4cccc(Cl)c4)CC3)cc2-c2nnn[nH]2)cn1 | human Bradykinin B1 receptor (Homo sapiens) | nM | 117

I: COc1ccc(-c2ccc(NC(=O)C3(c4ccccc4OC(F)(F)F)CC3)cc2-c2nnn[nH]2)cc1OC
II: CCOc1ccc(-c2ccc(NC(=O)C3(c4ccc(Cl)cc4)CC3)cc2-c2nnn[nH]2)cn1
Compare the recorded IC50 of I and II ; state which is larger. Reply briefly: the label of your chosen item.
I

----------
Target: human Bradykinin B1 receptor (Homo sapiens)
Construct: host or cells: CHO-K1
Sequence (P46663 1-353): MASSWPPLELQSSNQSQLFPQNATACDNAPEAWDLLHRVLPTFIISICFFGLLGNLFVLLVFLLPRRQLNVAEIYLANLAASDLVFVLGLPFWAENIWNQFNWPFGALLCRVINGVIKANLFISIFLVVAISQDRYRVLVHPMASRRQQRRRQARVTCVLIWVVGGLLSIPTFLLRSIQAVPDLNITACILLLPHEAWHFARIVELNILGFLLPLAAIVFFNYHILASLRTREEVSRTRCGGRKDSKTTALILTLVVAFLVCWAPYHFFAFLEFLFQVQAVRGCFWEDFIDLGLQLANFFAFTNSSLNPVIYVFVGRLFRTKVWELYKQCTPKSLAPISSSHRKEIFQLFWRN
Test: Calcium flux Assay (FLIPR) with recombinant CHO-K1 cells expressing human Bradykinin B1 receptor, in presence (hB1 IC50) or absence (hB1 free IC50) of 0.1% BSA
Format: cell-based
Settings: in presence of 0.1% BSA, read-out: hB1 IC50
Protocol: The potency to inhibit the Bradykinin B1 receptor was determined for the compounds of this invention in a cell-based fluorescent calcium-mobilisation assay. […] The change of the intracellular Ca^2+ concentration is monitored with a fluorescent plate reader FLIPR TETRA® (Molecular Devices). […] Peak fluorescence was used to determine the response to agonist obtained at each concentration of compound examples by the following equation: […]
pIC50: −log10 of the molar value.
measure: pIC50

1: CCOc1ncc(-c2ccc(NC(=O)C3(c4cccc(Cl)c4)CC3)cc2-c2nnn[nH]2)cn1 [Example 184]
2: COc1ccc(-c2ccc(NC(=O)C3(c4ccc(Cl)c(F)c4)CC3)cc2-c2nnn[nH]2)cc1OC [Example 16]
3: COc1ccc(-c2ccc(NC(=O)C3(c4cccc(F)c4Cl)CC3)cc2-c2nnn[nH]2)cc1OC [Example 49]
4: N#Cc1cc(F)cc(-c2ccc(NC(=O)C3(c4cccc(Cl)c4)CC3)cc2-c2nnn[nH]2)c1 [Example 337]
Place the items in sequence of falling pIC50. Put the labels in the order asked and list them.
2, 1, 3, 4
